All figures here come from ChEMBL document CHEMBL1156678.

Property: Activity; scope: individual molecules
# Test system: Mus musculus
# assay: Analgesic activity in ICR mouse assessed as pain threshold variation at 0.13 mmol/kg, ip after 30 mins by tail flick test relative to control
# Type: functional

# entry-smiles, Activity
measured = [
    ("COc1cc(C2=NC(C)(C)C(C)(C)N2O)ccc1O", "47.57%"),
    ("CC1(C)N=C(c2ccc(Cl)cc2Cl)N(O)C1(C)C", "46.97%"),
    ("CC1(C)N=C(c2ccccc2O)N(O)C1(C)C", "50.76%"),
    ("CC1(C)N=C(c2ccc([N+](=O)[O-])cc2)N(O)C1(C)C", "44.15%"),
    ("COc1ccc(C2=NC(C)(C)C(C)(C)N2O)c(OC)c1", "52.93%"),
    ("CC1(C)N=C(c2cccc(O)c2)N(O)C1(C)C", "50.69%"),
    ("Cc1ccc(C2=NC(C)(C)C(C)(C)N2O)cc1", "42.06%"),
    ("CC1(C)N=C(c2ccc(Br)cc2)N(O)C1(C)C", "29.02%"),
    ("CC1(C)N=C(c2ccc3c(c2)OCO3)N(O)C1(C)C", "58.82%"),
    ("COc1ccc(C2=NC(C)(C)C(C)(C)N2O)cc1OC", "50.9%"),
    ("CC1(C)N=C(c2ccc(Cl)cc2)N(O)C1(C)C", "63.85%"),
    ("CC1(C)N=C(c2ccccc2)N(O)C1(C)C", "43.67%"),
]
